target: Human α2δ-1 subunit of Cav2.2 calcium channel (Homo sapiens, UniProt P54289); experiment: biochemical; format: binding
Sequence (P54289 25-1103): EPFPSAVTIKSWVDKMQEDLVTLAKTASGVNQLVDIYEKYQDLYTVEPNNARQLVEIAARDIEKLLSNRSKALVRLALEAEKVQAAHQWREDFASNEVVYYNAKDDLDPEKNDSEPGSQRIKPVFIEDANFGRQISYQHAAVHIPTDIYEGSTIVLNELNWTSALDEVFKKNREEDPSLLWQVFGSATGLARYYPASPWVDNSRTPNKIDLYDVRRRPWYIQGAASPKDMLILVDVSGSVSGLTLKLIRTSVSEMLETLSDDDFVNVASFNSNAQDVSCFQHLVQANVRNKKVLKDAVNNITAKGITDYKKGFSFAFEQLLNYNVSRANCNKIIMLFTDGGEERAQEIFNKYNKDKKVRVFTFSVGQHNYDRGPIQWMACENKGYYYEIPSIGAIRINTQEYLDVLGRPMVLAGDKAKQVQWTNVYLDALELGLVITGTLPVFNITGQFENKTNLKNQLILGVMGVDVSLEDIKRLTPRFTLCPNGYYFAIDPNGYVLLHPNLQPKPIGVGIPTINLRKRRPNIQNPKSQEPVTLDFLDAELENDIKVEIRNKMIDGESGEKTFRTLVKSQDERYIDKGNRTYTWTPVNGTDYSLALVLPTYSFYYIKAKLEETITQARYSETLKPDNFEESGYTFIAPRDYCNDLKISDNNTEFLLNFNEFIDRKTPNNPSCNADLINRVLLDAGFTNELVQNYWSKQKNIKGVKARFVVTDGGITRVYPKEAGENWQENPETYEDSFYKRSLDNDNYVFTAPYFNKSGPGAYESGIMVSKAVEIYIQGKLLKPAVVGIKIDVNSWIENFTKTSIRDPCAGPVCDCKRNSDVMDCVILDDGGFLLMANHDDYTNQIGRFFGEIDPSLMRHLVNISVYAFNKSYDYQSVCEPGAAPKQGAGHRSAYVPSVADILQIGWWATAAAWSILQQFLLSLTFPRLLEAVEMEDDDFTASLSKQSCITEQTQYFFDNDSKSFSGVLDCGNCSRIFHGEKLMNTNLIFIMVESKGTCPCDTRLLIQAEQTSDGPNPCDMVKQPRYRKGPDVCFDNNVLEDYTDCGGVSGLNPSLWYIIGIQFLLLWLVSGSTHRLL
Parameter Ki: see the listing below.

Guide cases for Ki, answers given:
CCC[C@@H](c1nc2ccc(N3C[C@H](C)OC4(CCN(CCc5ccccc5)CC4)C3)cc2c(=O)n1CC)N1C[C@@H](C)N[C@@H](C)C1
< 500 nM
CCC[C@H](c1nc2cc(F)c(Br)cc2c(=O)n1CC)N1CCN[C@H](C)C1
< 500 nM

Prompt line: Requested field: Ki. Item: CCCC(c1nc2cc(Br)ccc2c(=O)n1C)N1C[C@@H](C)N[C@@H](C)C1 (stereo partly shown)
Response line: < 500 nM

Prompt line: Also, CCC[C@@H](c1nc2ccc(O)cc2c(=O)n1CC)N1C[C@@H](C)N[C@@H](C)C1 please.
Response line: 500 to 5000 nM

Prompt line: Then CCCC(c1nc2ccc(N3CC=C(c4ccccc4O)CC3)cc2c(=O)n1CC)N1C[C@@H](C)N[C@@H](C)C1 (stereo partly shown) ?
Response line: < 500 nM

Prompt line: // next record CCC[C@H](c1nc2ccc(Br)cc2c(=O)n1CC)N1CCN[C@@H](COC)C1
Response line: < 500 nM

* * *

target: Human α2δ-1 subunit of Cav2.2 calcium channel (Homo sapiens); test: biochemical; format: binding
Each item that follows carries a reported Ki.

CCCC(c1nc2cc(F)c(F)cc2c(=O)n1CC)N1CCNCC1 (stereo not shown)
< 500 nM
CCC[C@H](c1nc2ccc(Br)cc2c(=O)n1CC)N1CCN[C@H](CO)C1
< 500 nM
CCC[C@H](c1nc2ccccc2c(=O)n1CC)N1CCN[C@@H](C)C1
< 500 nM
CCCCC(c1nc2ccccc2c(=O)n1CCOC)N1C[C@@H](C)N[C@@H](C)C1 (stereo partly shown)
500 to 5000 nM
CCC[C@@H](c1nc2ccccc2c(=O)n1CC)N1CCN[C@@H](C)C1
> 5000 nM
CCC[C@@H](c1nc2ccc(NCC[C@]3(c4ccccn4)CCOC4(CCCC4)C3)cc2c(=O)n1CC)N1C[C@@H](C)N[C@@H](C)C1
> 5000 nM
CCCC(c1nc2ccc(N3CCC(NC)CC3)cc2c(=O)n1CC)N1C[C@@H](C)N[C@@H](C)C1 (stereo partly shown)
< 500 nM
CCC[C@@H](c1nc2ccncc2c(=O)n1CC)N1CCN[C@@H](C)C1
> 5000 nM

Prompt line: Value lookup for Ki; key = CCCC(c1nc2cc(CN3CCN(C)CC3)ccc2c(=O)n1C)N1C[C@@H](C)N[C@@H](C)C1 (stereo partly shown)
Response line: < 500 nM

Prompt line: Next: CCC[C@@H](c1nc2cnc(C(F)(F)F)cc2c(=O)n1CC)N1CCN[C@@H](C)C1
Response line: > 5000 nM

Prompt line: What do you get for CCC[C@H](c1nc2ncc(Br)cc2c(=O)n1CCC)N1CCN[C@@H](C)C1 ?
Response line: < 500 nM

Prompt line: And for CCC[C@H](c1nc2ccc(Br)cc2c(=O)n1CC)[C@@H]1CCNCC1(F)F ?
Response line: > 5000 nM

Prompt line: Try this molecule too: CCCC(c1nc2cc(-c3ccnc(OC)c3)ccc2c(=O)n1CC)N1C[C@@H](C)N[C@@H](C)C1 (stereo partly shown)
Response line: < 500 nM
